Numbers sourced from the OligoGym collection.

target: NDUFAB1
assay info: pooled miR-30 sensor sort-seq; sequence = guide strand; further: reference of the scale not given here
experimental setup: shRNA
Kind request: treat 0.03 as inclusive, so sensor-assay potency score (higher = more potent) at 0.03 or higher is Met, anything lower is Not met.

[Q] Decide: is the reported value of sensor-assay potency score (higher = more potent) for TACGTAAAGAACACGGTCCTGG equal to or greater than 0.03?
[A] Met

[Q] Try this sequence next: TACAATTTCTTGTGGACACATT
[A] Not met

[Q] And TAATCTACAATTTCTTGTGGAC ?
[A] Not met

[Q] Please give the result for TACAATTTAAATACAAGTCCAT too.
[A] Met

[Q] Would you mind doing AAGTCCATCAGAATCACTCTGT as well?
[A] Met

[Q] Next sequence: ACAACTGTGTAACTCTACCAGG
[A] Not met

[Q] Then TGTAACTCTACCAGGAACCTGC ?
[A] Met

[Q] For TTTACTGAAAGCTTCTCTGGGT then?
[A] Met

====

Entries annotated with measured sensor-assay potency score (higher = more potent)
target: FTL
assay info: pooled miR-30 sensor sort-seq; sequence = guide strand
experimental setup: shRNA

[Q] Using the record for TGATAAGCTTCACTTCCTCATC , report its sensor-assay potency score (higher = more potent).
[A] -1.37

[Q] Would you kindly repeat that for TTTTTCTCCAGGGCCATGGCAG ?
[A] -1.05

[Q] TACCCCACTCATCTTCAGCTGG , same question.
[A] -0.815

====

target: C14orf105
assay info: pooled miR-30 sensor sort-seq; sequence = guide strand
experimental setup: shRNA
Each entry gets f if its sensor-assay potency score (higher = more potent) stays under 0.2, and t if its sensor-assay potency score (higher = more potent) is 0.2 or above.

>  <sequence text>
TTGAATGCAAAGTCCACACGGC

>  <group label>
t

$$$$

[Q] Given the entry TTGCTTTGTGCATTGTCCTGGC , answer whether its sensor-assay potency score (higher = more potent) meets or surpasses 0.2.
[A] t

[Q] Likewise for TTTGCTTTGTGCATTGTCCTGG ?
[A] t

[Q] # iterate: TTTTCTTTAACTCCATTTGGGC
[A] f

[Q] Here is the next sequence: TTTGCTTATTAATTCTTGCCTC
[A] f

====

target: RHOH
assay info: pooled miR-30 sensor sort-seq; sequence = guide strand
experimental setup: shRNA
measurement name: sensor-assay potency score (higher = more potent)

Solved entries (count: 7):
>  <sequence text>
TTCACTTGTAGAGTGTAGTTAG

>  <observed measurement>
0.0342

$$$$
>  <sequence text>
TCCATGAAGACGTCCACCCCTG

>  <observed measurement>
-1.1

$$$$
>  <sequence text>
TCCGGGAAGGTCTCGGAGGTGA

>  <observed measurement>
-1.75

$$$$
>  <sequence text>
TAAGGGCTGAGCACTCCAGGTA

>  <observed measurement>
-0.636

$$$$
>  <sequence text>
AAGCGCACCAACAGAGAGGTTT

>  <observed measurement>
-0.535

$$$$
>  <sequence text>
TTGTAGAGTGTAGTTAGTGAAA

>  <observed measurement>
-1.62

$$$$
>  <sequence text>
AAACACCTGCTGTACTCCCCGA

>  <observed measurement>
-0.993

$$$$

Kindly review the next sequence as well.
[Q] Return reported sensor-assay potency score (higher = more potent); argument: AAGGTCTCGGAGGTGAAGCGCA
[A] -0.81

====

target: UTP18
assay info: pooled miR-30 sensor sort-seq; sequence = guide strand
experimental setup: shRNA
# cutoff -0.5 applies to sensor-assay potency score (higher = more potent); >= gives Criterion met, < gives Criterion not met

Consider the worked cases shown below.
>  <sequence text>
TTCATCTTCAAGATTCCTCTTG

>  <group label>
Criterion met

$$$$
>  <sequence text>
TTAATCCATATAAACTGCCTTC

>  <group label>
Criterion not met

$$$$
>  <sequence text>
TAGACATAAAGAACCTTGCTGT

>  <group label>
Criterion met

$$$$

[Q] Is sensor-assay potency score (higher = more potent) at least -0.5? Consider TTTGCAACAAATCATCTTCATC
[A] Criterion not met

[Q] Quick one: TAGTGATACAGCATTATCTAAT
[A] Criterion not met

[Q] For TTTTTCATCATATCCTTCCGAA then?
[A] Criterion met

====

target: KLF15
assay info: pooled miR-30 sensor sort-seq; sequence = guide strand
experimental setup: shRNA
measurement name: sensor-assay potency score (higher = more potent)
Response field accepts a number only; no unit should be typed.

>  <sequence text>
TATTTTATGTGGATGGACCTAT

>  <observed measurement>
0.313

$$$$
>  <sequence text>
AAACTCTTCAATCTCCTCCAGG

>  <observed measurement>
-0.475

$$$$

[Q] Fill in the blank: the reported sensor-assay potency score (higher = more potent) of TAGCACTAAAGTTCTGGCCTTG is ____.
[A] -0.309

[Q] Now this one: TCTCGCACACAGGACACTGGTA
[A] -0.647

[Q] How about this sequence: TTAAATTTCAAATTTACACAAA
[A] -0.919

[Q] Can you check TTTGGTGTACATCTTGCTGCAG next?
[A] 0.126

[Q] For TATCTAGTTCTCTCACACCCAG then?
[A] -0.809

====

target: SRSF7
assay info: pooled miR-30 sensor sort-seq; sequence = guide strand
experimental setup: shRNA
Binary call on sensor-assay potency score (higher = more potent): 1 (yes) from -0.5 upward, 0 (no) beneath that.

>  <sequence text>
TTGATCGTCGAGGAGATGCTGA

>  <group label>
1 (yes)

$$$$
>  <sequence text>
TTGATCTTGACCTCGACGGGGA

>  <group label>
1 (yes)

$$$$

Now look at this entry.
[Q] Quick check: does TTACCAACATACACCTTGGTTT have sensor-assay potency score (higher = more potent) greater than or equal to -0.5?
[A] 0 (no)

====

target: OCLM
assay info: pooled miR-30 sensor sort-seq; sequence = guide strand
experimental setup: shRNA
Label TRUE for high-side sensor-assay potency score (higher = more potent) (at or above -0.7) and FALSE for low-side sensor-assay potency score (higher = more potent) (below it).

>  <sequence text>
ATAGAAGAGTATACTAATGTGT

>  <target>
OCLM

>  <group label>
TRUE

$$$$

[Q] Please tell me: is the sequence TCTGCTAAGGTAAATCTTTAAC at or over -0.7 in terms of sensor-assay potency score (higher = more potent)?
[A] FALSE

[Q] Now consider AATACCACTCTTATAAAGGATT .
[A] FALSE

[Q] Subsequent entry: TATACTAATGTGTCTGCTAAGG
[A] FALSE

====

target: FGF2
assay info: pooled miR-30 sensor sort-seq; sequence = guide strand
experimental setup: shRNA
measurement name: sensor-assay potency score (higher = more potent)
Answer field: number only, no words.

Illustrative cases are given below, each with its answer.
>  <sequence text>
TTTGCAGTACAGCCGCTTGGGG

>  <target>
FGF2

>  <observed measurement>
-0.977

$$$$
>  <sequence text>
TTTGATAGACACAACTCCTCTC

>  <target>
FGF2

>  <observed measurement>
0.744

$$$$
>  <sequence text>
TAGACACAACTCCTCTCTCTTC

>  <target>
FGF2

>  <observed measurement>
-0.65

$$$$
>  <sequence text>
TTGGAAGAAAAAGTATAGCTTT

>  <target>
FGF2

>  <observed measurement>
0.162

$$$$
>  <sequence text>
ATAGACACAACTCCTCTCTCTT

>  <target>
FGF2

>  <observed measurement>
-0.298

$$$$
>  <sequence text>
TATACTTCTTCTTTCATGTGAA

>  <target>
FGF2

>  <observed measurement>
0.715

$$$$
>  <sequence text>
TAGCTTGATGTGAGGGTCGCTC

>  <target>
FGF2

>  <observed measurement>
-0.132

$$$$
>  <sequence text>
TTTGGATCCAAGTTTATACTGC

>  <target>
FGF2

>  <observed measurement>
-0.268

$$$$

[Q] Recorded sensor-assay potency score (higher = more potent) for TTGCAGTACAGCCGCTTGGGGT , please?
[A] -1.34

[Q] Follow-up item: TTCAGTGCCACATACCAACTGG
[A] -0.475

[Q] Same lookup for TAACGGTTAGCACACACTCCTT , please.
[A] -1.27

[Q] Next: TGAGGGTCGCTCTTCTCCCGGA
[A] -0.455

[Q] Param item: TTGATAGACACAACTCCTCTCT
[A] 0.382

[Q] // next record AACGGTTAGCACACACTCCTTT
[A] 0.1

[Q] Next: TCCATCTTCCTTCATAGCCAGG
[A] -1.98

====

target: MRPL30
assay info: pooled miR-30 sensor sort-seq; sequence = guide strand
experimental setup: shRNA
Listed here are sequences together with their documented sensor-assay potency score (higher = more potent).
Please reply with the number alone, leaving off any unit.

Solved entries:
>  <sequence text>
TTTGTCACAGTCTGTAGTCTGC

>  <observed measurement>
-0.242

$$$$
>  <sequence text>
TTAAATAAAAACAATTTGCATT

>  <observed measurement>
-0.896

$$$$
>  <sequence text>
TAGACATGTTCTCCTCTGCTGG

>  <observed measurement>
-0.684

$$$$

Consider now this further sequence.
[Q] Item under review: TATTCTGGTAACAATATGCAGT . Reported sensor-assay potency score (higher = more potent)?
[A] -0.632
